The reported measurements were obtained from patent US5149648A.

system: F-1; assay type: biochemical, NK-1148 strain; details: substance added at 1 mM; no addition = 100%
Could you please mark fulfilled for values of Relative Activity F-1 below 90% and not fulfilled for values at or above it?

Hello, is Relative Activity F-1 of the following molecule strictly smaller than 90%? `[Cl-].[Cl-].[Zn+2]`
not fulfilled

Hello, is Relative Activity F-1 of the following molecule strictly smaller than 90%? `[Cl-].[Cl-].[Co+2]`
not fulfilled

Hello, is Relative Activity F-1 of the following molecule strictly smaller than 90%? `[N-]=[N+]=[N-].[Na+]`
fulfilled

Hello, is Relative Activity F-1 of the following molecule strictly smaller than 90%? `[Ba+2].[Cl-].[Cl-]`
not fulfilled

Hello, is Relative Activity F-1 of the following molecule strictly smaller than 90%? `[Cl][Hg][Cl]`
fulfilled

Hello, is Relative Activity F-1 of the following molecule strictly smaller than 90%? `N[C@@H](CS)C(=O)O`
fulfilled

Hello, is Relative Activity F-1 of the following molecule strictly smaller than 90%? `[Cl][Al]([Cl])[Cl]`
fulfilled

Hello, is Relative Activity F-1 of the following molecule strictly smaller than 90%? `[Cl][Mn][Cl]`
not fulfilled

Hello, is Relative Activity F-1 of the following molecule strictly smaller than 90%? CCCCCCCCCCCCOS(=O)(=O)[O-].[Na+] [SDS, sodium dodecyl sulfate]
not fulfilled

----------
tested on: NK-1148 strain (FERM BP-1859); test: Effect of lignin-related substances on the enzyme production; assay type: cell-based; settings: 0.2% of substance added after 7 days culture, further cultured at 28° C. for one day
Measure: log10(Enzymatic activity) (log10 of the value in Unit/ml)
A value of 2 here means Enzymatic activity of 100 in Unit/ml, since values are log10.

The following compounds have reported results that may help.
>>> print(df.to_string())
              compound                    measure  numeric_result
0     COc1ccc(CO)cc1OC  log10(Enzymatic activity)           -1.30
1      COc1cc(CO)ccc1O  log10(Enzymatic activity)            0.60
2  COc1cc(CO)cc(OC)c1O  log10(Enzymatic activity)            0.60
3           OCc1ccccc1  log10(Enzymatic activity)           -2.00

Now turn to the next compound.
Observed log10(Enzymatic activity) on NK-1148 strain (FERM BP-1859) for COc1cc(C(O)C(CO)Oc2c(OC)cccc2OC)cc(OC)c1O (centres unmarked) , please.
0.59

----------
tested on: F-1; assay type: biochemical, NK-1148 strain; details: substance added at 1 mM; no addition = 100%
Relative Activity F-1: recorded values
Dear colleague, please send the value followed by its unit.

The following compounds have reported results that may help.
In [3]: df
Out[3]:
                     compound  result
0  [Cl-].[Cl-].[Mg+2] [MgCl2]     94%
1  [Ca+2].[Cl-].[Cl-] [CaCl2]     94%
2        [Cl][Cu][Cl] [CuCl2]    102%

Now turn to the next compound.
# get_value(readout='Relative Activity F-1', item= OCCS [2-Mercapto-ethanol] )
10%
